# System: SK-MEL-28 melanoma
# assay_text: NCI-60 one-dose screen, 48 h (100 = growth as untreated, 0 = no growth, -100 = all killed)
# condition_info: 10 µM unless noted
About 83,000 compounds went through this panel and 20% of them were active in at least one assay; those are over-represented in the sample as a whole.
recorded_endpoint: growth (%)

| input_smiles | recorded_endpoint | uom | endpoint_value |
| --- | --- | --- | --- |
| COc1cc(NC(=O)NCc2ccco2)ccc1-c1ccc(NC(=O)NCc2ccco2)cc1OC | growth | % | 79.8 |
| COc1cc2c(cc1OC)C(=O)/C(=C/c1cccc(OCC(=O)c3ccccc3)c1)C2 | growth | % | 107 |
| COCCCNS(=O)(=O)c1ncnc2nc[nH]c12 | growth | % | 152 |
| CC(=O)OCC(=O)[C@@]1(O)CC[C@H]2[C@@H]3CCC4=CC(=O)CC[C@]4(C)[C@@]3(F)[C@@H](O)C[C@@]21C | growth | % | 112 |
| C/C=C(/C(=C/C)c1ccc(O)cc1)c1ccc(O)cc1 | growth | % | 52.4 |
| CCOC(=O)/C(=C/CC/C(C)=C/CC/C(C)=C/CCc1ccoc1)CC(=O)N1CCCCC1 | growth | % | 36.8 |
| COc1ccc(Cl)cc1Nc1nc(C(F)(F)F)ccc1C(=O)N/N=C/c1c(Cl)cccc1Cl | growth | % | 62.2 |
| COc1cnc2c(c1)C(=O)c1c-2n(CCCNC2=NCCS2)c(=O)c2cc(F)ccc12 | growth | % | 79.2 |
| COc1ccc(/C=C/C(=O)c2cccc(NS(C)(=O)=O)c2)cc1 | growth | % | 110 |

* * *

# System: M14 melanoma
# assay_text: NCI-60 one-dose screen, 48 h (100 = growth as untreated, 0 = no growth, -100 = all killed)
# condition_info: 10 µM unless noted
This is part of a sample that, as a whole, favours compounds with a hit. Of some 83,000 tested, about 20% had one in any assay.
Label met when growth is strictly below 90%; at or above that, label not met.

| molecule | group_label |
| --- | --- |
| CC(=O)Nc1c(Cl)cc2c(c1Cl)Cc1ccccc1-2 | not met |
| O=C(O)CCNS(=O)(=O)c1ccc(-c2ccccc2)cc1 | not met |
| NS(=O)(=O)c1ccc(N2CC(c3nc4ccccc4[nH]3)CC2=O)cc1 (stereo not given) | not met |
| COc1ccc2nc(NC(=O)CN3CCn4c(nnc4C(F)(F)F)C3)sc2c1 | met |
| CCCc1n(Cc2ccc3ccccc3c2)cc[n+]1Cc1ccc2ccccc2c1 | met |
| CCCCCCCCN(CCO)CCCCCCCC | not met |
| CN1CCN(CCCCCN=c2cc3c(=O)n(CCCCCN4CCN(C)CC4)c(=O)c4c(NCCCCCN5CCN(C)CC5)cc5c(O)n(CCCCCN6CCN(C)CC6)c(=O)c2c5c4-3)CC1 | met |
| CCSCC1CC(O)(c2ccccc2)C(c2ccccc2)C(c2ccc(Cl)cc2)O1 (stereo not given) | met |
| CC[C@@H](c1ccc(O)c(O)c1)[C@@H](CC)c1ccc(O)c(O)c1 | met |

* * *

# Tested on: SF-268 CNS
# assay_text: NCI-60 one-dose screen, 48 h (100 = growth as untreated, 0 = no growth, -100 = all killed)
# condition_info: 10 µM unless noted
This is part of a sample that, as a whole, favours compounds with a hit. Of some 83,000 tested, about 20% had one in any assay.
Label Condition met when growth >= 70%; otherwise Condition not met.

| molecule | group_label |
| --- | --- |
| COc1cnc2c(c1)C(=O)c1c-2n(CCCN2CCCC2)c(=O)c2cc(F)ccc12 | Condition not met |
| O=C(Nc1nn2c(-c3cc(C(F)(F)F)cc(C(F)(F)F)c3)nnc2s1)C1CCCC1 | Condition not met |
| O=C(Oc1ccccc1)C(Br)C(Br)c1ccccc1 (stereo unspecified) | Condition met |
| O=C(CSc1nnc(-c2cc(-c3ccccc3)nc3ccccc23)o1)c1ccc(Br)cc1 | Condition met |
| CC(=O)N1N=C(c2ccc(C(F)(F)F)cc2)CC1c1ccc2c(c1)OCO2 (stereo unspecified) | Condition met |
| COC(=O)C1CCN(S(=O)(=O)c2ccc(-c3ccccc3)cc2)CC1 | Condition met |
| COc1ccc([N+](=O)[O-])c(S(=O)(=O)c2ccc(Cl)cc2)n1 | Condition met |
| NC(=O)NC1(C(=O)O)CCCC1 | Condition met |
| CC(C)N(Cc1ccccc1)c1c(S)ssc1=S | Condition not met |
| O[N+]1=CC=CCC1=S.On1ccccc1=S.[Zn] | Condition not met |
| CC(=O)OCC(=O)[C@@]1(O)CC[C@H]2[C@@H]3CCC4=CC(=O)CC[C@]4(C)[C@@]3(F)[C@@H](O)C[C@@]21C | Condition met |
| c1ccc(-c2oc(-c3ccccc3)c3ccccc23)cc1 | Condition met |
| O=C(CN1CCN(c2ccc(Cl)cc2)CC1)N1CCN(c2nnc(-c3ccc(Cl)cc3)c(-c3ccc(Cl)cc3)n2)CC1 | Condition met |
| N#Cc1c(-c2ccccc2)cc(-c2ccccc2)n(CC(=O)O)c1=O | Condition not met |
| CCCCCCC(CC#N)(CCC)CCCC (stereo unspecified) | Condition met |
| O=C1C(=O)/C(=C/c2ccccc2)CCCCCC/C1=C/c1ccccc1 | Condition not met |
| NS(=O)(=O)c1cc2c(cc1Cl)NC=NS2(=O)=O | Condition met |
| COc1ccc2c3c(ccc2c1)C(=O)/C(=C\O)CC3 | Condition met |
| COc1ccccc1-n1c(-c2ccc(O)cc2C)cn2c3c(=O)[nH]c(=O)n(C)c3nc12 | Condition met |
| COc1cc(/C=C/C(=O)CC(=O)/C=C/c2ccc(OC(=O)C3C4CC5CC(C4)CC3C5)c(OC)c2)ccc1OC(=O)C1C2CC3CC(C2)CC1C3 (stereo unspecified) | Condition met |
